These entries and their values trace back to patent US20230242474A1.

# Format: physicochemical
# RECORDED_CONDITIONS: lipid nanoparticle of the ionizable lipid with mRNA, Table 1
MEASURED_ENDPOINT: PDI

Illustrative cases are given below, each with its answer.
> print(dat)
                                   compound  measured.endpoint   value
1  CCCCC/C=C/C/C=C/CCCCCCCCN(CCCO)CCCCCC(=O)OCCCCCCCCCCC                PDI   0.083
2  CCCCCCCCC(CCCCCCCC)OC(=O)CCCCCCCN(CCO)CCCCCCCC(=O)OC(COCCCCCC)COCCCCCC                PDI   0.146
3  CCCCCCCCCCCCCCCCN(CCO)CCCCCC(=O)OCCCCCCCCCCC                PDI   0.090
4  CCCCCCCCC(CCCCCCCC)OC(=O)CCCCCCCN(CCCO)CCCCCCCC(=O)OC(CCCCCCCC)CCCCCCCC                PDI   0.090
5  CCCCCCOCC(COCCCCCC)OC(=O)CCCCCCCN(CCO)CCCCCCCC(=O)OC(COCCCCCC)COCCCCCC                PDI  0.0835

Hi! Can you tell me PDI for each of these compounds?
1. CCCCC/C=C/C/C=C/CCCCCCCCN(CCCO)CCCCCCCC(=O)OC(CCCCCCCC)CCCCCCCC
2. CCCCCCCCCCCOC(=O)CCCCCN(CCCO)CCCCCCCC(=O)OC(CCCCCCCC)CCCCCCCC [A4, reference compound]
3. CCCCC/C=C/C/C=C/CCCCCCCCN(CCO)CCCCCCCC(=O)OC(CCCCCCCC)CCCCCCCC [A8, reference compound]

1. 0.175
2. 0.110
3. 0.120

# return PDI for each item in the list
1. CCCCCCCCCCCOC(=O)CCCCCN(CCO)CCCCCC(=O)OCCCCCCCCCCC [A3, reference compound]
2. CCCCCCCCCCCOC(=O)CCCCCN(CCCCCCCC(=O)OC(COCCCCCC)COCCCCCC)CCCNc1c(NC)c(=O)c1=O
3. CCCCCCOCC(COCCCCCC)OC(=O)CCCCCCCN(CCCO)CCCCCCCC(=O)OC(COCCCCCC)COCCCCCC
4. CCCCC/C=C/C/C=C/CCCCCCCCN(CCO)CCCCCCCC(=O)OC(COCCCCCC)COCCCCCC

1: 0.120; 2: 0.13; 3: 0.0923; 4: 0.104

Dear colleague, could you send me PDI for each of the items below? Thanks.
1. CCCCCCCCC(CCCCCCCC)OC(=O)CCCCCCCN(CCCO)CCCCCCCC(=O)OC(COCCCCCC)COCCCCCC
2. CCCCC/C=C/C/C=C/CCCCCCCCN(CCO)CCCCCC(=O)OCCCCCCCCCCC
3. CCCCCCCCCCCOC(=O)CCCCCN(CCCO)CCCCCCCC(=O)OCC(COCCCCCC)(COCCCCCC)COCCCCCC
4. CCCCC/C=C\C/C=C\CCCCCCCCC(CCCCCCCC/C=C\C/C=C\CCCCC)OC(=O)CCCN(C)C [MC3, reference compound]

1: 0.1037; 2: 0.120; 3: 0.049; 4: 0.10
